Assay: Volume of distribution at steady state in cynomolgus monkey at 1 mg/kg, iv bolus
Type: ADME, organism-based, Macaca fascicularis
Design: dose 1 mg/kg, route intravenous
Conditions: in vivo, read-out: Vdss
Reported property: Vd (L/kg)
Only the number, expressed in L/kg, is required.

Exercise: Given the entry N[C@H]1CC[C@H](Nc2ncc3nc(Nc4ccc(F)cc4F)n(C4CCCC4)c3n2)CC1 , report its measured Vd.
Key: 11

---

Target: CYP2D6 (Homo sapiens, UniProt P10635)
Sequence (P10635 whole entry): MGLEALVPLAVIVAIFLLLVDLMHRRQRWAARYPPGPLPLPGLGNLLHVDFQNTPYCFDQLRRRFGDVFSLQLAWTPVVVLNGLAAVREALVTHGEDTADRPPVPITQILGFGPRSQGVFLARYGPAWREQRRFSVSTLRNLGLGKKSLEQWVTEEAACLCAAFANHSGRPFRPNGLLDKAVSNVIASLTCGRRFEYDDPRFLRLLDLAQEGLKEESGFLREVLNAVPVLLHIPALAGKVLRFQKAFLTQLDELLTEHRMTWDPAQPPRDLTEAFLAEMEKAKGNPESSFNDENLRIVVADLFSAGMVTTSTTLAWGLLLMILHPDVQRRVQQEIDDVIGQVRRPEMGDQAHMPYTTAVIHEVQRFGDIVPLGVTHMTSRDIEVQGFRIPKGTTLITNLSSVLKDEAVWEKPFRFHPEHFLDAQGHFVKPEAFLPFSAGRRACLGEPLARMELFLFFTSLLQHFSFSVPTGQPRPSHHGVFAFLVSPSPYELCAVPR
Experiment: Drug metabolism assessed as CYP2D6-mediated compound loss after 30 mins
Assay type: ADME
Settings: recombinant enzyme; read-out: Drug metabolism
Reported property: metabolised at 0.5 h (%)
// note: answer is a bare numeric in %

Exercise: What measured metabolised at 0.5 h goes with N[C@H]1CC[C@H](Nc2ncc3nc(Nc4ccc(F)cc4F)n(C4CCCC4)c3n2)CC1 ?
Key: 1.4

---

Target: Mitogen-activated protein kinase 10 (Homo sapiens)
Sequence (P53779 whole entry): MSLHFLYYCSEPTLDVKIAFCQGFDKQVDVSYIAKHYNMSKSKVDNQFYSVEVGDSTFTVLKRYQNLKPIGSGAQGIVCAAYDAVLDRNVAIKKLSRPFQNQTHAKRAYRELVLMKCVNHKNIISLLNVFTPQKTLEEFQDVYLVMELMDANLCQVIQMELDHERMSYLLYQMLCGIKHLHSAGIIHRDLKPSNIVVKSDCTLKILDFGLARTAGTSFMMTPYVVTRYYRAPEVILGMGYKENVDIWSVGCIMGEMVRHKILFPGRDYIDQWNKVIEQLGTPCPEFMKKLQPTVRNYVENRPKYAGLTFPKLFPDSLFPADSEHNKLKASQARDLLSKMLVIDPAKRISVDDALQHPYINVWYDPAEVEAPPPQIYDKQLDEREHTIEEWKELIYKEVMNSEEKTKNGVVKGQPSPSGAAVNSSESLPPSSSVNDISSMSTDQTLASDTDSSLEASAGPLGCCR
Experiment: Inhibition of full length Hexa-His-tagged JNK3 using GST-tagged cJun and [gamma33P]ATP as substrate after 60 mins by scintillation counting
Reported property: IC50 (µM)
Numbers only; they are read as µM.

Exercise: Name the reported IC50 value associated with the molecule N[C@H]1CC[C@H](Nc2ncc3nc(Nc4c(F)cc(F)cc4F)n(C4CCCC4)c3n2)CC1
Key: 0.016

Exercise: Form field: reported IC50 of N[C@H]1CC[C@H](Nc2ncc3nc(Nc4ccc(F)cc4F)n(C4CCCC4)c3n2)CC1
Key: 0.024

Exercise: What measured IC50 goes with CCNc1ncc2nc(Nc3ccccc3F)n(C3CCCC3)c2n1 ?
Key: 0.26

Exercise: // query IC50 value for entry COc1ccc(Nc2ncc3nc(Nc4ccccc4F)n([C@H]4CC[C@H](N)CC4)c3n2)cc1
Key: 0.24

Exercise: Which IC50 reading was recorded for the molecule COc1ccc(Nc2ncc3nc(Nc4ccccc4F)n(C4CCCCC4)c3n2)cc1 ?
Key: 0.36

Exercise: Dear colleague, I am looking for the recorded IC50 of the following molecule: COc1ccc(Nc2ncc3nc(Nc4c(F)cccc4F)n(C4CCCC4)c3n2)cc1
Key: 0.13

---

Assay: Mean residence time in cynomolgus monkey at 1 mg/kg, iv bolus
Assay type: ADME, organism-based, Macaca fascicularis
Parameters: dose 1 mg/kg, route intravenous
Details: in vivo
Reported property: MRT (h)
Please reply with the bare figure in h and do not write the unit itself.

Exercise: I have this compound here, N[C@H]1CC[C@H](Nc2ncc3nc(Nc4ccc(F)cc4F)n(C4CCCC4)c3n2)CC1 , and I need its recorded MRT.
Key: 40

---

Test: Half life in human microsomes
Format: ADME, Microsome
Reported property: half-life (h)
Give the number; h is assumed, so skip it.

Exercise: Data request, read-out half-life, for COc1ccc(Nc2ncc3nc(Nc4ccccc4F)n(C4CCCC4)c3n2)cc1
Key: 1.03

---

Target: Mitogen-activated protein kinase 14 (Homo sapiens, UniProt Q16539)
Sequence (Q16539 whole entry): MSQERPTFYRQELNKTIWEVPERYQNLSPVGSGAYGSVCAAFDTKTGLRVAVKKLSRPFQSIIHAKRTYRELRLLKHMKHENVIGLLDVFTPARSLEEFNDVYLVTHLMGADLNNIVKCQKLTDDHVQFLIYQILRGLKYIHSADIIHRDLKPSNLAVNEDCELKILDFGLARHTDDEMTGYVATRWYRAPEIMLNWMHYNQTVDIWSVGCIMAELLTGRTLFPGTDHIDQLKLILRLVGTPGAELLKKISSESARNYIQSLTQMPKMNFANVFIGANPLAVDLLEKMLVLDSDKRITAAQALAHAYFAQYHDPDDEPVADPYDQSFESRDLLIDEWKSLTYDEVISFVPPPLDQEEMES
Test: Inhibition of p38alpha using MBP and [gamma33P]ATP as substrate after 60 mins by scintillation counting
Lab note: anything with IC50 below 1 µM is marked met; values at 1 µM or higher are marked not met.

Exercise: Is IC50 strictly under 1 µM for the entry CCn1c(Nc2ccccc2F)nc2cnc(Nc3ccc(OC)cc3)nc21 ?
Key: not met

Exercise: For COc1ccc(Nc2ncc3nc(Nc4ccccc4F)n([C@H]4CC[C@@H](C(N)=O)CC4)c3n2)cc1 , is the recorded IC50 below the cut-off of 1 µM?
Key: met

Exercise: Identify whether the compound N[C@H]1CC[C@H](Nc2ncc3nc(Nc4ccccc4F)n(C4CCCC4)c3n2)CC1 records IC50 below 1 µM.
Key: met

Exercise: Please let me know if COc1ccc(Nc2ncc3nc(Nc4ccccc4F)n(C4CCCC4)c3n2)cc1 shows IC50 below 1 µM.
Key: not met

Exercise: Identify whether the compound Fc1ccccc1Nc1nc2cnc(NC3CCCCC3)nc2n1C1CCCC1 records IC50 below 1 µM.
Key: not met

Exercise: Identify whether the compound COc1ccc(Nc2ncc3nc(Nc4c(F)cccc4F)n(C4CCCC4)c3n2)cc1 records IC50 below 1 µM.
Key: not met

Exercise: Please determine if COc1ccc(Nc2ncc3nc(Nc4ccccc4Cl)n(C4CCCC4)c3n2)cc1 is below 1 µM in terms of IC50.
Key: not met

Exercise: Determine if N[C@H]1CC[C@H](Nc2ncc3nc(Nc4c(F)cccc4F)n(C4CCCC4)c3n2)CC1 shows IC50 strictly lower than 1 µM.
Key: met

Exercise: Check if IC50 falls below 1 µM for COc1ccc(Nc2ncc3nc(Nc4ccccc4F)n(C4CCCCC4)c3n2)cc1 .
Key: not met

Exercise: For this compound, is IC50 lower than 1 µM? CC(C)Nc1ncc2nc(Nc3ccccc3F)n(C3CCCC3)c2n1
Key: not met

Exercise: API: query returns whether the compound falls strictly under 1 µM in IC50. Query: COc1ccc(Nc2ncc3nc(Nc4ccccc4F)n(-c4ccccc4)c3n2)cc1
Key: not met

Exercise: IC50 under 1 µM? Item: N[C@H]1CC[C@H](Nc2ncc3nc(Nc4c(F)cc(F)cc4F)n(C4CCCC4)c3n2)CC1
Key: met

---

Experiment: Metabolic stability of the compound in mouse liver microsomes assessed as compound remaining at 3 uM after 30 mins
Type: ADME, Microsome
Conditions: read-out: Stability
Reported property: remaining at 0.5 h, 3 µM (%)
Record the value in %, omitting the unit from your answer.

Exercise: Please look up its remaining at 0.5 h, 3 µM: N[C@H]1CC[C@H](Nc2ncc3nc(Nc4ccc(F)cc4F)n(C4CCCC4)c3n2)CC1
Key: 100

---

Experiment: AUC in cynomolgus monkey at 1 mg/kg, iv bolus
Format: ADME, organism-based, Macaca fascicularis
Parameters: dose 1 mg/kg, route intravenous
Settings: plasma
Reported property: AUC (µM·h)
Please reply with the bare figure in µM·h and do not write the unit itself.

Exercise: # get_value(readout='AUC', item= N[C@H]1CC[C@H](Nc2ncc3nc(Nc4ccc(F)cc4F)n(C4CCCC4)c3n2)CC1 )
Key: 7

---

Provide the reported pIC50 of each item.
Biological target: Mitogen-activated protein kinase 8 (Homo sapiens, UniProt P45983)
Sequence (P45983 whole entry): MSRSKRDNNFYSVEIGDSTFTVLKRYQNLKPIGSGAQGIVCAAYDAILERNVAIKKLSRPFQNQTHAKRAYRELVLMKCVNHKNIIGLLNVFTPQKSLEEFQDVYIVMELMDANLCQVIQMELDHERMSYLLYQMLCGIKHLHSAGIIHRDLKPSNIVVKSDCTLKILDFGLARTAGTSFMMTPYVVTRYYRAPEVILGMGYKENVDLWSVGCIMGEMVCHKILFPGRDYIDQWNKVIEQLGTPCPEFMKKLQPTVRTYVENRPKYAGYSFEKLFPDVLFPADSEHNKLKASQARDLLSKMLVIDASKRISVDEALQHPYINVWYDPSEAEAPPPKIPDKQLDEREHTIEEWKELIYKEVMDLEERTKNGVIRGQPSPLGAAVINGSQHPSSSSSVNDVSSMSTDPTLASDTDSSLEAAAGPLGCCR
Assay: Inhibition of full length Hexa-His-tagged JNK1 using GST-tagged cJun and [gamma33P]ATP as substrate after 60 mins by scintillation counting
Just the number, please; pIC50 means minus log10 of the concentration in mol/L.

Exercise: Need pIC50 of N[C@H]1CC[C@H](Nc2ncc3nc(Nc4c(F)cccc4F)n(C4CCCC4)c3n2)CC1 , thanks.
Key: 7.04

Exercise: Fill in the blank: the reported pIC50 of CC(C)Nc1ncc2nc(Nc3ccccc3F)n(C3CCCC3)c2n1 is ____.
Key: 6.10

Exercise: Sample O[C@H]1CC[C@H](Nc2ncc3nc(Nc4ccccc4F)n(C4CCCC4)c3n2)CC1 — what was its pIC50?
Key: 7.12

Exercise: Which pIC50 value belongs to COc1ccc(Nc2ncc3nc(Nc4ccccc4F)n(C4CCOCC4)c3n2)cc1 ?
Key: 6.31

Exercise: Please report the recorded pIC50 for Fc1ccccc1Nc1nc2cnc(NC3CCCCC3)nc2n1C1CCCC1 .
Key: 6.24

Exercise: Given the entry COc1ccc(Nc2ncc3nc(Nc4ccc(F)cc4F)n(C4CCCC4)c3n2)cc1 , report its measured pIC50.
Key: 5.60

Exercise: pIC50 lookup needed for CNc1ncc2nc(Nc3ccccc3F)n(C3CCCC3)c2n1 , thanks.
Key: 5.20

Exercise: Consider the compound shown here: COc1ccc(Nc2ncc3nc(Nc4ccccc4F)n(C(C)C)c3n2)cc1 What is its recorded pIC50?
Key: 6.08

Exercise: Could you tell me which pIC50 is on file for CCNc1ncc2nc(Nc3ccccc3F)n(C3CCCC3)c2n1 ?
Key: 5.74

Exercise: Entry COc1ccc(Nc2ncc3nc(Nc4ccccc4F)n([C@H]4CC[C@@H](C(N)=O)CC4)c3n2)cc1 : reported pIC50 = ?
Key: 6.74

Exercise: Name the recorded pIC50 for COc1ccc(Nc2ncc3nc(Nc4c(F)cccc4F)n(C4CCCC4)c3n2)cc1 .
Key: 5.96

Exercise: pIC50 lookup needed for COc1ccc(Nc2ncc3nc(Nc4ccccc4F)n(C4CCCC4)c3n2)cc1 , thanks.
Key: 5.96

Exercise: Value lookup for pIC50; key = COc1ccc(Nc2ncc3nc(Nc4ccccc4F)n([C@H]4CC[C@@H](O)CC4)c3n2)cc1
Key: 6.80

Exercise: Reported pIC50, compound N[C@H]1CC[C@H](Nc2ncc3nc(Nc4ccccc4F)n(C4CCCC4)c3n2)CC1 : ____
Key: 6.64

Exercise: Entry under review: COc1ccc(Nc2ncc3nc(Nc4ccccc4F)n([C@H]4CC[C@H](N)CC4)c3n2)cc1 . Reported pIC50?
Key: 5.59

Exercise: Recorded pIC50 for N[C@H]1CC[C@H](Nc2ncc3nc(Nc4ccc(F)cc4F)n(C4CCCC4)c3n2)CC1 , please?
Key: 6.57

Exercise: Dear colleague, I am looking for the recorded pIC50 of the following compound: COc1ccc(Nc2ncc3nc(Nc4ccccc4F)n(C4CCCCC4)c3n2)cc1
Key: 5.54

Exercise: Any idea what its pIC50 is? The compound is CCn1c(Nc2ccccc2F)nc2cnc(Nc3ccc(OC)cc3)nc21
Key: 5.44

Exercise: Recorded pIC50 for N[C@H]1CC[C@H](Nc2ncc3nc(Nc4c(F)cc(F)cc4F)n(C4CCCC4)c3n2)CC1 , please?
Key: 6.82
